Counter-ions that a name gives are not always drawn.
Here we list molecules with their recorded SFV replication % left (surviving fraction, remaining percentage of SFV replication) when tested on SFV-Rluc.
Please state the number and follow it with the unit.

# get_value(readout='SFV replication % left (surviving fraction, remaining percentage of SFV replication)', item= Cc1ccc2oc(=O)ccc2c1 [6-Methylcoumarin] )
83.6%

Next: O=C1c2c(O)cc(O)cc2O[C@H](c2ccc(O)c(O)c2)[C@H]1O [(+)-Taxifolin]
93.7%

Next: CC(C)(C)NC[C@H](O)COc1nsnc1N1CCOCC1 [Timolol maleate]
129.1%

Next: O=c1ccc2ccccc2o1 [Coumarin]
68.8%

Next: COc1ccccc1OCC(O)CO (stereo not shown) [Guaifenesin]
124.5%

Next: C[C@@]12CCC[C@H]1[C@@H]1CC[C@H]3CCCC[C@]3(C)[C@H]1CC2 [4-a-Androstane]
53.0%

Next: Nc1ccc(S(N)(=O)=O)cc1 [Sulfanilamide]
64.2%

Next: COc1ccc(OC)c(C(O)C(C)N)c1 (stereo not shown) [Methoxamine hydrochloride]
98.4%

Next: CC(=O)Nc1nnc(S(N)(=O)=O)s1 [Acetazolamide]
71.3%

Next: O=C(O)c1ccccc1C(=O)Nc1ccc(S(=O)(=O)Nc2nccs2)cc1 [Phthalylsulfathiazole]
113.7%
